B1: FBF1 (parent)
chain: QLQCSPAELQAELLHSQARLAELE

Variants of: B1
ASSAY NAME: protein stability index of a GFP-peptide fusion (GPS, HEK-293T) (PSI 1-6); higher = more stable;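 further: lentivirally expressed fusions sorted by FACS into six bins by GFP to DsRed ratio, PSI derived from sequencing read proportions per bin multiplied by bin number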
MEASUREMENT PARAMETERS: c terminus: a fixed tail appended
# protein stability index per entry
VALUE TYPE: protein stability index

SEQUENCE INPUT | ENDPOINT VALUE
QLQCSPAELQAELLHSQARQAELE [L20Q] | 5.33
QLQCSPAELQAELLHSQARLASLE [E22S] | 2.48
QLQCSQAELQAELLHSQARLAELE [P6Q] | 2.84
QLQCSPAELQAELLHSQARLAELR [E24R] | 3.16
QLQCSPAELQAELLHSQATLAELE [R19T] | 3.88
QLWCSPAELQAELLHSQARLAELE [Q3W] | 2.62
QLQCSPDELQAELLHSQARLAELE [A7D] | 3.66
QLQCSPAELQAELLHSQARLAELF [E24F] | 2.32
QLQCSPAELQVELLHSQARLAELE [A11V] | 2.87
QLQCSPAELQTELLHSQARLAELE [A11T] | 3.37
QLQCSPAELQAELLHVQARLAELE [S16V] | 4.15
QLQCSPPELQAELLHSQARLAELE [A7P] | 3.79
QLQCSPAELQAELLHSQSRLAELE [A18S] | 3.69
QLQCSKAELQAELLHSQARLAELE [P6K] | 4
QLQYSPAELQAELLHSQARLAELE [C4Y] | 3.77
QLQCSPAELQAWLLHSQARLAELE [E12W] | 1.64
QLQCSPAELQAELIHSQARLAELE [L14I] | 3.83
QLQCSPAELQAELHHSQARLAELE [L14H] | 3.94
QLQCSPAELQAELLHSQARLKELE [A21K] | 3.29
QLQCSPADLQAELLHSQARLAELE [E8D] | 2.55
QLQCSPAELQAELLHSQARLAEPE [L23P] | 4.03
QLQCSPAELQAELLHSQAELAELE [R19E] | 2.89
QLQCSPAELQAELLHSQARLAELV [E24V] | 2.81
QLQCSPFELQAELLHSQARLAELE [A7F] | 2.57
QLQCSPAELQAELYHSQARLAELE [L14Y] | 3.21
QLQCSPAELQAELLTSQARLAELE [H15T] | 3.56
QLQCSPACLQAELLHSQARLAELE [E8C] | 1.72
QLQCSPAELQAELLHSQAREAELE [L20E] | 4.63
QLQCSDAELQAELLHSQARLAELE [P6D] | 3.56
QLQCSPAELQAELLSSQARLAELE [H15S] | 2.52
QLQCHPAELQAELLHSQARLAELE [S5H] | 3.01
QLQCSPAELGAELLHSQARLAELE [Q10G] | 3.85
QLQCSPAELQAELLHSQAGLAELE [R19G] | 4.16
QLLCSPAELQAELLHSQARLAELE [Q3L] | 3.35
QLQCSLAELQAELLHSQARLAELE [P6L] | 2.43
QLQCSPAELQAELLHSQARGAELE [L20G] | 4.74
QLQCSPAELQAELLHSEARLAELE [Q17E] | 3.77
QMQCSPAELQAELLHSQARLAELE [L2M] | 3.61
QLQCSPAELQSELLHSQARLAELE [A11S] | 2.77
QLQCSPAELQAELLHSMARLAELE [Q17M] | 3.65
QLQCSPAELQAELGHSQARLAELE [L14G] | 4.5
QLKCSPAELQAELLHSQARLAELE [Q3K] | 2.19
KLQCSPAELQAELLHSQARLAELE [Q1K] | 2.69
QLQCSPAELQAELLHFQARLAELE [S16F] | 3.78
QLQCSPAEWQAELLHSQARLAELE [L9W] | 4.52
QLQCSPAELQAECLHSQARLAELE [L13C] | 4.32
QLQCSPAELQAELLHSQARLAELS [E24S] | 2.99
QLQCSPAELQAELLHSQLRLAELE [A18L] | 2.68
QLQCSPAELQAELLHSQARLAPLE [E22P] | 3.39
QLQCAPAELQAELLHSQARLAELE [S5A] | 3.48
QLQCSPAELQAELLCSQARLAELE [H15C] | 2.88
SLQCSPAELQAELLHSQARLAELE [Q1S] | 3.31
QLQCSPAELQAELLHSQHRLAELE [A18H] | 2.85
QLQCSPAELQAERLHSQARLAELE [L13R] | 4.31
QLQLSPAELQAELLHSQARLAELE [C4L] | 3.92
QLQCSPAELQAELLHSQAPLAELE [R19P] | 4.61
QLQCSPAELQAELLHSQARLAKLE [E22K] | 2.99
QLQCSPAELQPELLHSQARLAELE [A11P] | 4.43
QLQCSPAELQAELLHSSARLAELE [Q17S] | 3.98
QLQCSPAELQAELLHSQANLAELE [R19N] | 4.2
QLQCPPAELQAELLHSQARLAELE [S5P] | 3.67
QSQCSPAELQAELLHSQARLAELE [L2S] | 3.96
QLQCSPAELQAELLHSQARLAENE [L23N] | 4.79
QLQCSPAELQAELLHSQAYLAELE [R19Y] | 1.89
QLQCSPAELTAELLHSQARLAELE [Q10T] | 3.91
QLQCSPAELQAELLHSQARLAELM [E24M] | 2.83
QLQCSPAELQAYLLHSQARLAELE [E12Y] | 3.22
QLQCSPAELQAELLHSAARLAELE [Q17A] | 3.4
QLQCKPAELQAELLHSQARLAELE [S5K] | 3.23
QLQISPAELQAELLHSQARLAELE [C4I] | 2.93
QLQCSPAELQAEPLHSQARLAELE [L13P] | 4.73
QAQCSPAELQAELLHSQARLAELE [L2A] | 3.02
QLQCSPAGLQAELLHSQARLAELE [E8G] | 2.76
QLQWSPAELQAELLHSQARLAELE [C4W] | 2.82
QLQCSPAELQAEALHSQARLAELE [L13A] | 4.28
QLQCSPAELQAEHLHSQARLAELE [L13H] | 4.85
QLQCSPAELQAELLHSQARLARLE [E22R] | 2.92
QLQCSPTELQAELLHSQARLAELE [A7T] | 2.78
QLQCSNAELQAELLHSQARLAELE [P6N] | 3.47
QLQCSPAELRAELLHSQARLAELE [Q10R] | 2.56
QLQCSPAELKAELLHSQARLAELE [Q10K] | 3.74
ALQCSPAELQAELLHSQARLAELE [Q1A] | 2.89
QLQCSPAELQAELLHSQAVLAELE [R19V] | 2.55
QLQCSPAELQAELLHSQARLCELE [A21C] | 3.01
QLQCSPAELQAELLHSQARLAERE [L23R] | 4.14
QLACSPAELQAELLHSQARLAELE [Q3A] | 3.13
QLQCSPAELQAETLHSQARLAELE [L13T] | 4.7
QLQCSPAELQAELLVSQARLAELE [H15V] | 2.85
QLQCSPAELQAELLHDQARLAELE [S16D] | 5.03
QLQCSPAELQAELLHSQARLGELE [A21G] | 3.79
QLQCSPAELQAELLHSQCRLAELE [A18C] | 3.27
